Origin of values: patent US20180140602A1

# TGT: BTK (Homo sapiens)
# Construct: Whole blood was collected with written consent from healthy volunteers by venipuncture into sodium heparin vials; endogenous in cells
# Sequence (Q06187 whole entry): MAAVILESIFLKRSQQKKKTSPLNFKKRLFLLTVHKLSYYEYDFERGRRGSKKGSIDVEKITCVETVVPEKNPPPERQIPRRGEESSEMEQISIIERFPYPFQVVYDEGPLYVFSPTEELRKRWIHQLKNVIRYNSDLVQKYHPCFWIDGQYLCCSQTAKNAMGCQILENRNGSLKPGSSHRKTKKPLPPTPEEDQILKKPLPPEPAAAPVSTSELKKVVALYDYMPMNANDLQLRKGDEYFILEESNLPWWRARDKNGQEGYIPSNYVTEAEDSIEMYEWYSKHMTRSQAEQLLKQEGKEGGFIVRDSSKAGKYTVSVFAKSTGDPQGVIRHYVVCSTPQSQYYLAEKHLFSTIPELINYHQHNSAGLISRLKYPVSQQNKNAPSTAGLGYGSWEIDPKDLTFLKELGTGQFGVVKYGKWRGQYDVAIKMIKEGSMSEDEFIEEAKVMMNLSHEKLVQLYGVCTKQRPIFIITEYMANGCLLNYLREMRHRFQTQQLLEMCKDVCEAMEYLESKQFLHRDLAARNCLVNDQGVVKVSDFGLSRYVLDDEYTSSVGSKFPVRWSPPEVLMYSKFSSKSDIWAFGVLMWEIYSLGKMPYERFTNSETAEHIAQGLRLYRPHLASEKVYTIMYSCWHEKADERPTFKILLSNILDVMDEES
# METHOD DESCRIPTION: Inhibition of BTK activity in blood (anti-IgM/IL-4 B cell activation, CD69);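 also: heparinized blood from healthy donors, read by flow cytometry, with inhibition derived from the percentage of CD69-positive cells within the CD19-positive lymphocyte gate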
# CONDITIONS USED: human whole blood, anti-IgM/IL-4, CD69 on CD19+ cells, 20 hours
ASSAY METRIC: log10 IC50 (log10 of the value in nM)
Scale: log10; quantity: IC50; unit before log: nM

log10 IC50 measured on "C=CC(=O)N1C[C@@H](C#N)C[C@H]1COc1c(N)ncnc1-c1cc(F)cc(NC(=O)c2ccc(C3CC3)cc2F)c1C" = 1.90

log10 IC50 measured on Cc1c(NC(=O)c2ccc(C3CC3)cc2F)cc(F)cc1-c1ncnc(N)c1OCCN(C)C(=O)C1CO1 (stereo not shown) = 2.51

log10 IC50 measured on "COC/C=C/C(=O)N(C)CCOc1c(N)ncnc1-c1cc(F)cc(NC(=O)c2ccc(C3CC3)cc2F)c1C" = 2.38

log10 IC50 measured on "CC#CC(=O)N1C[C@@H](OC)C[C@H]1COc1c(N)ncnc1-c1cc(F)cc(NC(=O)c2ccc(C3CC3)cc2F)c1C" = 2.35

log10 IC50 measured on "C=CC(=O)N1C[C@H](OC)C[C@H]1COc1c(N)ncnc1-c1cc(F)cc(N2CCc3cc(C4CC4)ccc3C2=O)c1CO" = 1.52

log10 IC50 measured on "C=CC(=O)N1CC[C@H](OC)[C@H]1COc1c(N)ncnc1-c1cc(F)cc(NC(=O)c2ccc(C3CC3)cc2F)c1C" = 1.85

log10 IC50 measured on "C/C=C/C(=O)N1CC(Oc2c(N)ncnc2-c2cc(F)cc(NC(=O)c3ccc(C4CC4)cc3F)c2C)C1" = 3.05

log10 IC50 measured on "CC#CC(=O)N1CC(Oc2c(N)ncnc2-c2cc(F)cc(NC(=O)c3ccc(C4CC4)cc3F)c2C)C1" = 2.58

log10 IC50 measured on "C=CC(=O)N1CCC[C@@H](COc2c(N)ncnc2-c2cc(F)cc(NC(=O)c3ccc(C4CC4)cc3F)c2C)C1" = 2.99

log10 IC50 measured on "C#CC(=O)N1CC(Oc2c(N)ncnc2-c2cc(F)cc(NC(=O)c3ccc(C4CC4)cc3F)c2C)C1" = 2.09

log10 IC50 measured on "C=CC(=O)N1C[C@@H](OC)C[C@H]1COc1c(N)ncnc1-c1cc(F)cc(NC(=O)c2ccc(C3CC3)cc2F)c1C" = 2.13

log10 IC50 measured on "C=CC(=O)N1C[C@H](C#N)C[C@H]1COc1c(N)ncnc1-c1cc(F)cc(NC(=O)c2ccc(C3CC3)cc2F)c1C" = 2.25

log10 IC50 measured on "C=CC(=O)NC1(COc2c(N)ncnc2-c2cc(F)cc(NC(=O)c3ccc(C4CC4)cc3F)c2C)CC1" = 2.75

log10 IC50 measured on "C#CC(=O)N1CC[C@H]1COc1c(N)ncnc1-c1cc(F)cc(NC(=O)c2ccc(C3CC3)cc2F)c1C" = 2.32

log10 IC50 measured on "C=CC(=O)N(C)CCOc1c(N)ncnc1-c1cccc(-n2ccc3cc(C4CC4)cc(F)c3c2=O)c1" = 2.66

log10 IC50 measured on "CC#CC(=O)N1CCC[C@H]1COc1c(N)ncnc1-c1cc(F)cc(NC(=O)c2ccc(C3CC3)cc2F)c1C" = 1.76

log10 IC50 measured on "CC#CC(=O)N(C)[C@@H](C)COc1c(N)ncnc1-c1cc(F)cc(NC(=O)c2ccc(C3CC3)cc2F)c1C" = 2.52

log10 IC50 measured on "C=CC(=O)N1CC[C@H]1COc1c(N)ncnc1-c1cc(F)cc(N2CCc3cc(C4CC4)ccc3C2=O)c1CO" = 1.86

log10 IC50 measured on "CC#CC(=O)N1C[C@H](F)C[C@H]1COc1c(N)ncnc1-c1cc(F)cc(NC(=O)c2ccc(C3CC3)cc2F)c1C" = 1.74

log10 IC50 measured on "C=CC(=O)N(C)CCOc1c(N)ncnc1-c1cc(F)cc(N2CCc3cc(C4CC4)ccc3C2=O)c1CO" = 1.81

log10 IC50 measured on "CC#CC(=O)N1C[C@H](OC)C[C@H]1COc1c(N)ncnc1-c1cc(F)cc(NC(=O)c2ccc(C3CC3)cc2F)c1C" = 1.88

log10 IC50 measured on "CC#CC(=O)N[C@@H](C)COc1c(N)ncnc1-c1cc(F)cc(NC(=O)c2ccc(C3CC3)cc2F)c1C" = 2.62

log10 IC50 measured on "C=CC(=O)N(CCF)CCOc1c(N)ncnc1-c1cc(F)cc(NC(=O)c2ccc(C3CC3)cc2F)c1C" = 1.46

log10 IC50 measured on "C=CC(=O)N(C)[C@@H](C)COc1c(N)ncnc1-c1cc(F)cc(NC(=O)c2ccc(C3CC3)cc2F)c1C" = 2.13

log10 IC50 measured on "C=CC(=O)N1C[C@H](F)C[C@H]1COc1c(N)ncnc1-c1cc(F)cc(NC(=O)c2ccc(C3CC3)cc2F)c1C" = 1.40

log10 IC50 measured on "C=CC(=O)N1C[C@H](OC)C[C@H]1COc1c(N)ncnc1-c1cc(F)cc(NC(=O)c2ccc(C3CC3)cc2F)c1C" = 1.71

log10 IC50 measured on "C=CC(=O)N[C@@H](C)COc1c(N)ncnc1-c1cc(F)cc(NC(=O)c2ccc(C3CC3)cc2F)c1C" = 2.39

log10 IC50 measured on "C=CC(=O)N1CCC[C@H]1COc1c(N)ncnc1-c1cc(F)cc(N2CCc3cc(C4CC4)ccc3C2=O)c1CO" = 1.51
